B1: Twister Ribozyme (parent)
chain: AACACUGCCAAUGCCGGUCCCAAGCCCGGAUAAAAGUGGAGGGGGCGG

# Variants of: B1
# experiment-summary: self-cleavage, relative activity (ratio to wild type); higher = more cleavage; co-transcriptional
measured-parameter: self-cleavage
Give bare numbers.

Some entries whose results are on file:
sequence-variant	reported
A2C G13C	0.0312
U6C C26U	0.0774
G17C C21G	0.0972
G16C A35G	0.483

I need self-cleavage for every entry listed below, if you could help.
1. C3A G48C
2. C21G U31A
3. A33C G41C

*A*
1. 0.251
2. 0.0515
3. 0.151

Each variant below has a recorded value; state its self-cleavage.
1. A4G G48U
2. A4U G38A
3. C20U C27G
4. C46U G48C

*A*
0.979
0.0789
0.0816
1.1
